// endpoint pIC50 / system rnADAMTS-5 (1-564-6H) (Rattus norvegicus)
Please express pIC50 as -log10 of the molar concentration.

// below: answered compounds
compound | pIC50
Cc1cc(Cl)ccc1N1CCN(C(=O)CCC2(c3ccccc3)NC(=O)NC2=O)CC1 (centres unmarked) | 6.02
CC(CC1(C2CC2)NC(=O)NC1=O)C(=O)N1CCN(c2cc(Cl)cc(Cl)c2)CC1 (centres unmarked) | 7.96
Cc1ccc(F)cc1N1CCN(C(=O)CCC2(C3CC3)NC(=O)NC2=O)CC1 (centres unmarked) | 7.54
C[C@H]1CN(C(=O)CCC2(C3CC3)NC(=O)NC2=O)CCN1c1ccc(Cl)cc1 (some centres unmarked) | 7.00
COC(CC1(C2CC2)NC(=O)NC1=O)C(=O)N1CCN(c2cc(Cl)cc(Cl)c2)CC1 (centres unmarked) | 7.40
CN(C)CCOc1ccc(C2(CCC(=O)N3CCN(c4cccc(Cl)c4)CC3)NC(=O)NC2=O)cc1 (centres unmarked) | 6.37
Cc1c(Cl)cccc1N1CCN(C(=O)C(C)CC2(C3CC3)NC(=O)NC2=O)CC1 (centres unmarked) | 8.15

Kindly review the next compound as well.
In: Look at this compound and give its reported pIC50. C[C@H]1CN(C(=O)CCC2(C3CC3)NC(=O)NC2=O)CCN1c1cccc(F)c1 (some centres unmarked)
Out: 7.08
